Assay: nasal absorption: KTM plasma levels by HPLC after intranasal or intravenous administration
Assay type: in vivo, White New Zealand rabbits
Settings: New Zealand White, plasma; rabbit, intravenous 2 mg/kg once, 3 hours
assay-endpoint: concentration at 3 h
Answer shape: numeric part, then the unit.

Requested field: concentration at 3 h. Item: O=C(c1ccccc1)c1ccc2n1CCC2C(=O)O (stereo not shown) [KTM, KETOROLAC® tromethamine]
120 ng/mL

---

Experiment: nasal absorption: KTM plasma levels by HPLC after intranasal or intravenous administration
Type: in vivo, White New Zealand rabbits
Settings: New Zealand White, plasma; rabbit, intravenous 2 mg/kg once, 0.25 hours
assay-endpoint: concentration at 0.25 h (ng/mL)
Write the value in ng/mL as a bare number.

Query: concentration at 0.25 h; subject: O=C(c1ccccc1)c1ccc2n1CCC2C(=O)O (stereo not shown)
7680

---

Experiment: nasal absorption: KTM plasma levels by HPLC after intranasal or intravenous administration
Format: in vivo, White New Zealand rabbits
Conditions: New Zealand White, plasma; rabbit, intravenous 2 mg/kg once, 5 hours
Procedure: Each rabbit received a active preparation in one nostril and its placebo in the other. Each animal received 2 mg/kg of KETOROLAC® tromethamine (KTM), twice a day for seven days and once on the eighth day. The control rabbits were treated, after seven days of nasal administration of physiologic solution, with 2 mg/kg of KTM by intravenous route once. After the last treatment plasma samples were collected at several times and KTM plasma levels were investigated by HPLC. […]
assay-endpoint: concentration at 5 h (ng/mL)
Supply the numeric figure in ng/mL, leaving out any unit text.

Entry O=C(c1ccccc1)c1ccc2n1CCC2C(=O)O (stereo not shown) has what concentration at 5 h?
20

---

Assay: nasal absorption: KTM plasma levels by HPLC after intranasal or intravenous administration
Assay type: in vivo, White New Zealand rabbits
Details: New Zealand White, plasma; rabbit, intravenous 2 mg/kg once, 0.5 hours
Description: Each rabbit received a active preparation in one nostril and its placebo in the other. Each animal received 2 mg/kg of KETOROLAC® tromethamine (KTM), twice a day for seven days and once on the eighth day. The control rabbits were treated, after seven days of nasal administration of physiologic solution, with 2 mg/kg of KTM by intravenous route once. After the last treatment plasma samples were collected at several times and KTM plasma levels were investigated by HPLC. […]
assay-endpoint: concentration at 0.5 h (ng/mL)
Number only, in ng/mL; omit the unit.

Name the recorded concentration at 0.5 h for O=C(c1ccccc1)c1ccc2n1CCC2C(=O)O (stereo not shown) .
3880
